Tested on: A2780 (ovarian carcinoma)
Experiment: SRB cytotoxicity assay, A2780
Type: cell-based, human
Conditions: CCD18Co/A2780
For each record, write down the corresponding selectivity index 1 (SI 1).
Lab note: jot the number down without any unit.

Reported selectivity index 1 (SI 1) of CC12CCC3C(CCC4C(C)(C(=O)OCCCC[n+]5ccccc5C=Cc5c[nH]c6ccccc56)CCCC34C)(CC1=O)C2.[Br-] (centres unmarked) : 17.61

Reported selectivity index 1 (SI 1) of C(=C\c1c[nH]c2ccccc12)/c1ccncc1 [Compound 5, 3-[(E)-2-Pyridin-4-yl-ethenyl]-1H-indole] : 44.21

Reported selectivity index 1 (SI 1) of CC12CCC3C(CCC4C(C)(C(=O)OCC[n+]5ccccc5C=Cc5c[nH]c6ccccc56)CCCC34C)(CC1=O)C2.[Br-] (centres unmarked) : 10.75

Reported selectivity index 1 (SI 1) of CC12CCC3C(CCC4C(C)(C(=O)OCCCCBr)CCCC34C)(CC1=O)C2 (centres unmarked) : 2.40

Reported selectivity index 1 (SI 1) of C=C1C[C@@]23CC[C@H]4[C@@](C)(CCC[C@@]4(C)C(=O)OCCCBr)[C@@H]2CC[C@]1(O)C3 : 1.51

Reported selectivity index 1 (SI 1) of CC12CCC3C(CCC4C(C)(C(=O)OCC[n+]5ccc(C=Cc6c[nH]c7ccccc67)cc5)CCCC34C)(CC1=O)C2.[Br-] (centres unmarked) : 13.96

Reported selectivity index 1 (SI 1) of C=C1C[C@@]23CC[C@H]4[C@@](C)(CCC[C@@]4(C)C(=O)OCCBr)[C@@H]2CC[C@]1(O)C3 : 1.70

Reported selectivity index 1 (SI 1) of C=C1C[C@@]23CC[C@H]4[C@@](C)(CCC[C@@]4(C)C(=O)OCCCC[n+]4cccc(/C=C/c5c[nH]c6ccccc56)c4)[C@@H]2CC[C@]1(O)C3.[Br-] : 9.14

Reported selectivity index 1 (SI 1) of C=C1C[C@@]23CC[C@H]4[C@@](C)(CCC[C@@]4(C)C(=O)OCCCC[n+]4ccc(/C=C/c5c[nH]c6ccccc56)cc4)[C@@H]2CC[C@]1(O)C3.[Br-] : 53.96

Reported selectivity index 1 (SI 1) of C=C1C[C@@]23CC[C@H]4[C@@](C)(CCC[C@@]4(C)C(=O)OCC[n+]4ccccc4/C=C/c4c[nH]c5ccccc45)[C@@H]2CC[C@]1(O)C3.[Br-] : 2.95

Reported selectivity index 1 (SI 1) of CC12CCC3C(CCC4C(C)(C(=O)OCCC[n+]5cccc(C=Cc6c[nH]c7ccccc67)c5)CCCC34C)(CC1=O)C2.[Br-] (centres unmarked) : 15.60

###

System: MCF7 (breast carcinoma)
Experiment: SRB cytotoxicity assay, MCF7
Assay type: cell-based, human
Settings: 72 h treatment, mean n = 3, SD 5-10%
For each record, write down the corresponding pIC50.
# pIC50 = -log10(concentration in molar units)

Item C=C1C[C@@]23CC[C@H]4[C@@](C)(CCC[C@@]4(C)C(=O)OCC[n+]4cccc(/C=C/c5c[nH]c6ccccc56)c4)[C@@H]2CC[C@]1(O)C3 ; assay system MCF7 (breast carcinoma); pIC50 reported as 5.42

Item CC12CCC3C(CCC4C(C)(C(=O)OCCCBr)CCCC34C)(CC1=O)C2 (stereo not drawn) ; assay system MCF7 (breast carcinoma); pIC50 reported as 4.89

Item CC12CCC3C(CCC4C(C)(C(=O)OCCCCBr)CCCC34C)(CC1=O)C2 (stereo not drawn) ; assay system MCF7 (breast carcinoma); pIC50 reported as 4.74

Item C=C1C[C@@]23CC[C@H]4[C@@](C)(CCC[C@@]4(C)C(=O)OCCCC[n+]4cccc(/C=C/c5c[nH]c6ccccc56)c4)[C@@H]2CC[C@]1(O)C3.[Br-] ; assay system MCF7 (breast carcinoma); pIC50 reported as 5.70

Item CC12CCC3C(CCC4C(C)(C(=O)OCC[n+]5ccc(C=Cc6c[nH]c7ccccc67)cc5)CCCC34C)(CC1=O)C2.[Br-] (stereo not drawn) ; assay system MCF7 (breast carcinoma); pIC50 reported as 5.97

Item C=C1C[C@@]23CC[C@H]4[C@@](C)(CCC[C@@]4(C)C(=O)OCCC[n+]4ccccc4/C=C/c4c[nH]c5ccccc45)[C@@H]2CC[C@]1(O)C3.[Br-] ; assay system MCF7 (breast carcinoma); pIC50 reported as 5.73

Item C=C1C[C@@]23CC[C@H]4[C@@](C)(CCC[C@@]4(C)C(=O)OCCCBr)[C@@H]2CC[C@]1(O)C3 ; assay system MCF7 (breast carcinoma); pIC50 reported as 4.55

Item CC12CCC3C(CCC4C(C)(C(=O)OCCC[n+]5ccc(C=Cc6c[nH]c7ccccc67)cc5)CCCC34C)(CC1=O)C2.[Br-] (stereo not drawn) ; assay system MCF7 (breast carcinoma); pIC50 reported as 6.23

Item CC12CCC3C(CCC4C(C)(C(=O)OCCCC[n+]5ccc(C=Cc6c[nH]c7ccccc67)cc5)CCCC34C)(CC1=O)C2.[Br-] (stereo not drawn) ; assay system MCF7 (breast carcinoma); pIC50 reported as 6.31

Item C=C1C[C@@]23CC[C@H]4[C@@](C)(CCC[C@@]4(C)C(=O)OCCC[n+]4ccc(/C=C/c5c[nH]c6ccccc56)cc4)[C@@H]2CC[C@]1(O)C3.[Br-] ; assay system MCF7 (breast carcinoma); pIC50 reported as 6.14

Item CC12CCC3C(CCC4C(C)(C(=O)OCC[n+]5ccccc5C=Cc5c[nH]c6ccccc56)CCCC34C)(CC1=O)C2.[Br-] (stereo not drawn) ; assay system MCF7 (breast carcinoma); pIC50 reported as 5.42

Item C=C1C[C@@]23CC[C@H]4[C@@](C)(CCC[C@@]4(C)C(=O)OCC[n+]4ccc(/C=C/c5c[nH]c6ccccc56)cc4)[C@@H]2CC[C@]1(O)C3.[Br-] ; assay system MCF7 (breast carcinoma); pIC50 reported as 5.74

###

System: CCD18Co (non-malignant human fibroblasts)
Assay: SRB cytotoxicity assay, CCD18Co
Format: cell-based
Details: 72 h treatment, mean n = 3, SD 5-10%
Checkbox rule: IC50 lower than 20 µM = Met; IC50 not lower than 20 µM = Not met.

**Query** Threshold test, IC50 < 20 µM: C=C1C[C@@]23CC[C@H]4[C@@](C)(CCC[C@@]4(C)C(=O)OCCC[n+]4cccc(/C=C/c5c[nH]c6ccccc56)c4)[C@@H]2CC[C@]1(O)C3.[Br-]
**Result** Not met

**Query** Threshold test, IC50 < 20 µM: C=C1C[C@@]23CC[C@H]4[C@@](C)(CCC[C@@]4(C)C(=O)OCCBr)[C@@H]2CC[C@]1(O)C3
**Result** Not met

**Query** Threshold test, IC50 < 20 µM: C[C@@]12CC[C@@H]3[C@@](CC[C@H]4[C@@]3(C)CCC[C@@]4(C)C(=O)OCCBr)(CC1=O)C2
**Result** Not met

**Query** Threshold test, IC50 < 20 µM: C=C1C[C@@]23CC[C@H]4[C@@](C)(CCC[C@@]4(C)C(=O)OCC[n+]4cccc(/C=C/c5c[nH]c6ccccc56)c4)[C@@H]2CC[C@]1(O)C3
**Result** Not met

**Query** Threshold test, IC50 < 20 µM: CC12CCC3C(CCC4C(C)(C(=O)OCCCC[n+]5cccc(C=Cc6c[nH]c7ccccc67)c5)CCCC34C)(CC1=O)C2.[Br-] (stereo not drawn)
**Result** Met

**Query** Threshold test, IC50 < 20 µM: C=C1C[C@@]23CC[C@H]4[C@@](C)(CCC[C@@]4(C)C(=O)OCCCC[n+]4cccc(/C=C/c5c[nH]c6ccccc56)c4)[C@@H]2CC[C@]1(O)C3.[Br-]
**Result** Met

**Query** Threshold test, IC50 < 20 µM: C=C1C[C@@]23CC[C@H]4[C@@](C)(CCC[C@@]4(C)C(=O)OCCC[n+]4ccccc4/C=C/c4c[nH]c5ccccc45)[C@@H]2CC[C@]1(O)C3.[Br-]
**Result** Met

**Query** Threshold test, IC50 < 20 µM: CC12CCC3C(CCC4C(C)(C(=O)OCC[n+]5ccccc5C=Cc5c[nH]c6ccccc56)CCCC34C)(CC1=O)C2.[Br-] (stereo not drawn)
**Result** Not met

**Query** Threshold test, IC50 < 20 µM: C=C1C[C@@]23CC[C@H]4[C@@](C)(CCC[C@@]4(C)C(=O)OCC[n+]4ccccc4/C=C/c4c[nH]c5ccccc45)[C@@H]2CC[C@]1(O)C3.[Br-]
**Result** Not met

**Query** Threshold test, IC50 < 20 µM: C=C1C[C@@]23CC[C@H]4[C@@](C)(CCC[C@@]4(C)C(=O)OCCCBr)[C@@H]2CC[C@]1(O)C3
**Result** Not met

**Query** Threshold test, IC50 < 20 µM: CC12CCC3C(CCC4C(C)(C(=O)OCCC[n+]5cccc(C=Cc6c[nH]c7ccccc67)c5)CCCC34C)(CC1=O)C2.[Br-] (stereo not drawn)
**Result** Met

**Query** Threshold test, IC50 < 20 µM: C=C1C[C@@]23CC[C@H]4[C@@](C)(CCC[C@@]4(C)C(=O)OCCCC[n+]4ccc(/C=C/c5c[nH]c6ccccc56)cc4)[C@@H]2CC[C@]1(O)C3.[Br-]
**Result** Met
